The measured values listed here are drawn from patent US10076504B2.

- protocol-text: Pharmacokinetics after oral and IV administration
- Type: in vivo
- measurement-parameters: plasma; Dog; IV Dose 1 mg/kg, PO Dose 3 mg/kg

compound | Cmax (ng/mL)
Cc1cc(C)c(-c2ccc(NC(=O)[C@H](Cc3ccc(C(=O)NCCS(=O)(=O)O)cc3)c3ccc(-c4ccc(C(C)(C)C)cc4)cc3)cc2)c(C)c1 [IIIa] | 10900

====

- protocol-text: Solubility in water, buffers, simulated fluids and Captisol
- Type: physicochemical
- measurement-parameters: thermodynamic from solid; Fed state simulated intestinal fluid (FeSSIF), 25° C., HPLC after 24-hour equilibration
Counter-ions that a name gives are not always drawn.
endpoint-label: solubility at 24 h

molecule | endpoint-label | result
Cc1cc(C)c(C2C=CC(NC(=O)[C@H](Cc3ccc(C(=O)NCCS(=O)(=O)O)cc3)c3ccc(-c4ccc(C(C)(C)C)cc4)cc3)=CC2)c(C)c1 (stereo partly shown) [Formula IIIa sodium salt] | solubility at 24 h | 6540 µg/mL

====

- protocol-text: Single ascending dose study, pharmacokinetics
- Assay type: in vivo, human
- measurement-parameters: human, plasma, po, 40 mg, Normal healthy volunteer, 40 mg oral, Fasted

molecule | Cmax (ng/mL)
Cc1cc(C)c(-c2ccc(NC(=O)[C@H](Cc3ccc(C(=O)NCCS(=O)(=O)O)cc3)c3ccc(-c4ccc(C(C)(C)C)cc4)cc3)cc2)c(C)c1 [IIIa] | 893

====

- protocol-text: Pharmacokinetics after oral and IV administration
- Assay type: in vivo
- measurement-parameters: plasma; Rat; IV Dose 1 mg/kg, PO Dose 3 mg/kg; read-out: VSS
endpoint-label: Vd (L/kg)

compound | endpoint-label | measurement-units | quantitative-readout
Cc1cc(C)c(-c2ccc(NC(=O)[C@H](Cc3ccc(C(=O)NCCS(=O)(=O)O)cc3)c3ccc(-c4ccc(C(C)(C)C)cc4)cc3)cc2)c(C)c1 [IIIa] | Vd | L/kg | 0.3

====

- protocol-text: Pharmacokinetics after oral and IV administration
- Type: in vivo
- measurement-parameters: plasma; Mouse; IV Dose 1 mg/kg, PO Dose 3 mg/kg

smiles | measurement-units | clearance
Cc1cc(C)c(-c2ccc(NC(=O)[C@H](Cc3ccc(C(=O)NCCS(=O)(=O)O)cc3)c3ccc(-c4ccc(C(C)(C)C)cc4)cc3)cc2)c(C)c1 | mL/min/kg | 22.2

====

- protocol-text: Single ascending dose study, pharmacokinetics
- Assay type: in vivo, human
- measurement-parameters: human, plasma, po, 40 mg, Normal healthy volunteer, 40 mg oral, Fasted; read-out: t1/2 (converted)
endpoint-label: half-life (h)

smiles | endpoint-label | quantitative-readout
Cc1cc(C)c(-c2ccc(NC(=O)[C@H](Cc3ccc(C(=O)NCCS(=O)(=O)O)cc3)c3ccc(-c4ccc(C(C)(C)C)cc4)cc3)cc2)c(C)c1 | half-life | 51.6

====

- protocol-text: Single ascending dose study, pharmacokinetics
- Format: in vivo, human
- measurement-parameters: human, plasma, po, 40 mg, Diabetic, 40 mg oral, Fasted
endpoint-label: Tmax (h)

smiles | quantitative-readout
Cc1cc(C)c(-c2ccc(NC(=O)[C@H](Cc3ccc(C(=O)NCCS(=O)(=O)O)cc3)c3ccc(-c4ccc(C(C)(C)C)cc4)cc3)cc2)c(C)c1 | 7.5

====

- protocol-text: Pharmacokinetics after oral and IV administration
- Format: in vivo
- measurement-parameters: plasma; Mouse; IV Dose 1 mg/kg, PO Dose 3 mg/kg; read-out: VSS
endpoint-label: Vd (L/kg)

compound | quantitative-readout
Cc1cc(C)c(-c2ccc(NC(=O)[C@H](Cc3ccc(C(=O)NCCS(=O)(=O)O)cc3)c3ccc(-c4ccc(C(C)(C)C)cc4)cc3)cc2)c(C)c1 [IIIa] | 0.62

====

- protocol-text: Pharmacokinetics after oral and IV administration
- Assay type: in vivo
- measurement-parameters: plasma; Dog; IV Dose 1 mg/kg, PO Dose 3 mg/kg
endpoint-label: AUC(0-t) (µg·h/mL)

smiles | quantitative-readout
Cc1cc(C)c(-c2ccc(NC(=O)[C@H](Cc3ccc(C(=O)NCCS(=O)(=O)O)cc3)c3ccc(-c4ccc(C(C)(C)C)cc4)cc3)cc2)c(C)c1 | 225

====

- protocol-text: Pharmacokinetics after oral and IV administration
- Type: in vivo
- measurement-parameters: plasma; Rat; IV Dose 1 mg/kg, PO Dose 3 mg/kg
- Protocol: Pharmacokinetics of IIIa were evaluated after both oral and IV administration in mice, rats, dogs, and monkeys.

smiles | measurement-units | Cmax
Cc1cc(C)c(-c2ccc(NC(=O)[C@H](Cc3ccc(C(=O)NCCS(=O)(=O)O)cc3)c3ccc(-c4ccc(C(C)(C)C)cc4)cc3)cc2)c(C)c1 | µg/mL | 1.33

====

- protocol-text: Single ascending dose study, pharmacokinetics
- Format: in vivo, human
- measurement-parameters: human, plasma, po, 40 mg, Diabetic, 40 mg oral, Fasted

smiles | Cmax / ng/mL
Cc1cc(C)c(-c2ccc(NC(=O)[C@H](Cc3ccc(C(=O)NCCS(=O)(=O)O)cc3)c3ccc(-c4ccc(C(C)(C)C)cc4)cc3)cc2)c(C)c1 | 1420

====

- protocol-text: Solubility in water, buffers, simulated fluids and Captisol
- Type: physicochemical
- measurement-parameters: thermodynamic from solid; Fasted state simulated intestinal fluid (FaSSIF), 25° C., HPLC after 24-hour equilibration
Structures can show the parent of a compound that is named as a salt.

compound | solubility at 24 h [µg/mL]
Cc1cc(C)c(C2C=CC(NC(=O)[C@H](Cc3ccc(C(=O)NCCS(=O)(=O)O)cc3)c3ccc(-c4ccc(C(C)(C)C)cc4)cc3)=CC2)c(C)c1 (stereo partly shown) [Formula IIIa sodium salt] | 210

====

- protocol-text: Single ascending dose study, pharmacokinetics
- Format: in vivo, human
- measurement-parameters: human, plasma, po, 40 mg, Normal healthy volunteer, 40 mg oral, Fed
endpoint-label: Tmax (h)

smiles | endpoint-label | measurement-units | quantitative-readout
Cc1cc(C)c(-c2ccc(NC(=O)[C@H](Cc3ccc(C(=O)NCCS(=O)(=O)O)cc3)c3ccc(-c4ccc(C(C)(C)C)cc4)cc3)cc2)c(C)c1 | Tmax | h | 7.2

====

- protocol-text: Pharmacokinetics after oral and IV administration
- Format: in vivo
- measurement-parameters: plasma; Mouse; IV Dose 1 mg/kg, PO Dose 3 mg/kg

molecule | half-life, h
Cc1cc(C)c(-c2ccc(NC(=O)[C@H](Cc3ccc(C(=O)NCCS(=O)(=O)O)cc3)c3ccc(-c4ccc(C(C)(C)C)cc4)cc3)cc2)c(C)c1 [IIIa] | 5.9

====

- protocol-text: Pharmacokinetics after oral and IV administration
- Type: in vivo
- measurement-parameters: plasma; Monkey; IV Dose 1 mg/kg, PO Dose 3 mg/kg
- Protocol: Pharmacokinetics of IIIa were evaluated after both oral and IV administration in mice, rats, dogs, and monkeys.

smiles | Cmax / ng/mL
Cc1cc(C)c(-c2ccc(NC(=O)[C@H](Cc3ccc(C(=O)NCCS(=O)(=O)O)cc3)c3ccc(-c4ccc(C(C)(C)C)cc4)cc3)cc2)c(C)c1 | 1250

====

- protocol-text: Pharmacokinetics after oral and IV administration
- Format: in vivo
- measurement-parameters: plasma; Monkey; IV Dose 1 mg/kg, PO Dose 3 mg/kg; read-out: VSS

molecule | Vd, L/kg
Cc1cc(C)c(-c2ccc(NC(=O)[C@H](Cc3ccc(C(=O)NCCS(=O)(=O)O)cc3)c3ccc(-c4ccc(C(C)(C)C)cc4)cc3)cc2)c(C)c1 [IIIa] | 0.16

====

- protocol-text: Pharmacokinetics after oral and IV administration
- Assay type: in vivo
- measurement-parameters: plasma; Monkey; IV Dose 1 mg/kg, PO Dose 3 mg/kg

molecule | half-life
Cc1cc(C)c(-c2ccc(NC(=O)[C@H](Cc3ccc(C(=O)NCCS(=O)(=O)O)cc3)c3ccc(-c4ccc(C(C)(C)C)cc4)cc3)cc2)c(C)c1 [IIIa] | 16.2 h

====

- protocol-text: Pharmacokinetics after oral and IV administration
- Assay type: in vivo
- measurement-parameters: plasma; Monkey; IV Dose 1 mg/kg, PO Dose 3 mg/kg

smiles | clearance [mL/min/kg]
Cc1cc(C)c(-c2ccc(NC(=O)[C@H](Cc3ccc(C(=O)NCCS(=O)(=O)O)cc3)c3ccc(-c4ccc(C(C)(C)C)cc4)cc3)cc2)c(C)c1 | 1.13

====

- protocol-text: Solubility in water, buffers, simulated fluids and Captisol
- Format: physicochemical
- measurement-parameters: thermodynamic from solid; Simulated gastric fluid (SGF), 25° C., HPLC after 24-hour equilibration
- Description: Solubility of a sodium salt of Formula IIIa (below) was determined in water and at various pH values and simulated intestinal fluids using HPLC and UV analysis with and without modified beta-cyclodextrin (Captisol®). Phase solubility was used to estimate the Captisol®: Formula IIIa binding constant. The influence of Captisol® on oral absorption was modelled as shown below. The effect of Captisol® on solution stability was determined by HPLC. Plasma levels of Formula IIIa were measured by LCMS/MS.
Structures can show the parent of a compound that is named as a salt.

compound | solubility at 24 h
Cc1cc(C)c(C2C=CC(NC(=O)[C@H](Cc3ccc(C(=O)NCCS(=O)(=O)O)cc3)c3ccc(-c4ccc(C(C)(C)C)cc4)cc3)=CC2)c(C)c1 (stereo partly shown) [Formula IIIa sodium salt] | 40 µg/mL
